Test system: PCSK9 gene
assay name: PCSK9 gRNA/SpCas9 editing in primary cynomolgus hepatocytes (Tables 2, 22)
Assay type: cell-based, cynomolgus monkey
condition context: SpCas9 mRNA MS002, 2500 ng/test article/mL, rep2
In the oligonucleotide strings, read from the 5' end, every base follows the letter of its sugar. An asterisk marks phosphorothioate; unmarked linkages are phosphodiester. Other units and linkages are bracketed, terminal groups are in braces. A string of capitals states the bases alone. m = 2'-O-methyl; r = 2'-OH (RNA)
measure: Cynomolgus Primary Hepatocytes-% Editing (%)
// units = %; emit number, no label

Examples with answers:
GA403 (nucleic acid) guide: mU*mC*mA*rGrCrUrCrCrArGrGrCrGrGrUrCrCrUrGrGmGrUrUrUrUrArGmAmGmCmUmArGmAmAmAmUmAmGmCmAmArGrUrU*mArAmArAmUrAmAmGmGmCmUmArGrUmCmCrGrUrUrAmUmCrArAmCmUmUrGmAmAmAmAmAmGmUmGrGmCmAmCmCmGmAmGmUmCmGmGmUmGmCmU*mU*mU*mUmUrUmU = 55.84
GA399 (nucleic acid) guide: mU*mC*mA*rGrCrUrCrCrArGrGrCrGrGrUrCrCrUrGrGmGrUrUrUrUrArGmAmGmCmUmAmGmAmAmAmUmAmGmCmAmArGrUrUmArAmArAmUrAmAmGmGmCmUmArGmUrCmCrGrUrUmAmUmCrArAmCmUmUmGmAmAmAmAmAmGmUmGmGmCmAmCmCmGmAmGmUmCmGmGmUmGmCmU*mU*mU*mUmUmUmU = 62.75

// next item, Cynomolgus Primary Hepatocytes-% Editing requested
Task item: Give me measured Cynomolgus Primary Hepatocytes-% Editing, please, for this molecule: GA396 (nucleic acid) guide: mU*mC*mA*rGrCrUrCrCrArGrGrCrGrGrUrCrCrUrGrGmGrUrUrUrUrArGmAmGmCmUmArGmAmAmAmUmAmGmCmAmArGrUrU*mArAmArAmUrAmAmGmGmCmUmArGrUmCmCrGrUrUrAmUmCrArAmCmUmUrGmAmAmAmAmAmGmUmGrGmCmAmCmCmGmAmGmUmCmGmGmUmGmCmU*mU*mU*mUmUmUmU
Reply: 56.84

Where do the numbers come from? From patent US20250152746A1.
